// reported hGIPR cAMP EC50 ratio per item
Target: T1, human gastric inhibitory peptide receptor (GIPR) (human, UniProt P48546 22-466)
T1 sequence (looked up): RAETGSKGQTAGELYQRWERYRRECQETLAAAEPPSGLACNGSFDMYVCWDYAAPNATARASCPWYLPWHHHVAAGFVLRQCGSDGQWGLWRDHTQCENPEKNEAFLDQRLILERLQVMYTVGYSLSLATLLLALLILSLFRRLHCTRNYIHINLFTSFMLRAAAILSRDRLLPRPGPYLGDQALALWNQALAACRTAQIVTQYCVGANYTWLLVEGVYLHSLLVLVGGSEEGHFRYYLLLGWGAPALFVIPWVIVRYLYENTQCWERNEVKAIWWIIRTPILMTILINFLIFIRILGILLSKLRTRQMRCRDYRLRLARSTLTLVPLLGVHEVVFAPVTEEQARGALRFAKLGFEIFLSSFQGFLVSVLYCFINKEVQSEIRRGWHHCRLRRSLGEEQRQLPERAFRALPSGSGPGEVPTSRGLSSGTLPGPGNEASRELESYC
Assay: cell-based or functional assay
Numbered stars: 1 amine (or outer) side, 2 acyl side, 3 side chain; on linkers, the order of the positions; unused ones are H or OH. Square brackets hold non-standard residues; d marks the D form. Side chains are listed from the residue outwards. Ends that are not written are not given here. * marks the point of attachment. C20 diacid = O=C(O)CCCCCCCCCCCCCCCCCCC(=O)*; γGlu = O=C(O)[C@H](CCC(=O)[*:2])N[*:1]; αMeF = C[C@](N)(Cc1ccccc1)C(=O)O; AEEA = NCCOCCOCC(=O)O; Aib = CC(C)(N)C(=O)O
Keep it simple and answer with nothing but the number.

• Y[Aib]EGT[αMeF]TSDYSIXLDKKAQ[Aib]DFIEYLIEGGPSSGAPPPS-NH2 (not fully specified (residues 13, 17); printed as Y-Aib-EGT-αMeF-TSDYSI-αMeF-LDKK((2-[2-(2-Amino-ethoxy)-ethoxy]-acetyl)2-(γ-Glu)-CO-(CH2)18-CO2H)AQ-Aib-DFIEYLIEGGPSSGAPPPS-NH2) [Example 140] = 3.76

Challenge: What value of measured hGIPR cAMP EC50 ratio is listed for YXEGTXTSDXSILLDKKAQXAFIEYLIEGGPSSGAPPPS (Y-Aib-EGT-αMeF-TSD-αMeF-SILLDKK((2-[2-(2-Amino-ethoxy)-ethoxy]-acetyl)2-(γ-Glu)-CO-(CH2)18-CO2H)AQ-Aib-AFIEYLIEGGPSSGAPPPS-NH2) [Example 131] ?
Response given: 1.03

Challenge: Do the same for Y[Aib]EGT[αMeF]TSDYSIXLDKK([AEEA-AEEA-γGlu-C20 diacid])AQ[Aib]AFIEYLIEAGPSSGAPPPS-NH2 (not fully specified (residue 13); printed as Y-Aib-EGT-αMeF-TSDYSI-αMeF-LDKK((2-[2-(2-Amino-ethoxy)-ethoxy]-acetyl)2-(γ-Glu)-CO-(CH2)18-CO2H)AQ-Aib-AFIEYLIEAGPSSGAPPPS-NH2) [Example 126] please
Response given: 2.53

Challenge: Do the same for YXEGTXTSDXSIXLDEKAQXEFIXYLIEGGPSSGAPPPS (Y-Aib-EGT-αMeF(2F)-TSD-(D-His)-SI-αMeF-LDEK((2-[2-(2-Amino-ethoxy)-ethoxy]-acetyl)2-(γ-Glu)-CO-(CH2)18-CO2H)AQ-Aib-EFI-(D-Glu)-YLIEGGPSSGAPPPS-NH2) [Example 185] please
Response given: 0.185
